RECORDED_METRIC: melting point

The cases that follow already have their melting point on record.
molecule="O=C(Cn1c2ccccc2c2ccccc21)NNC(=S)NCc1ccccc1 [Compound 4p]" observed="169 to 171 °C"
molecule="O=C(Cn1c2ccccc2c2ccccc21)NNC(=S)Nc1cccc2ccccc12 [Compound 4d]" observed="222 to 224 °C"
molecule="O=C(Cn1c2ccccc2c2ccccc21)NNC(=S)NCCc1ccccc1 [Compound 4s]" observed="170 to 172 °C"
molecule="O=C(Cn1c2ccccc2c2ccccc21)NNC(=S)Nc1ccc([N+](=O)[O-])cc1 [Compound 4e]" observed="235 to 237 °C"

Next molecule, please.
Task: Need melting point, item C=CCNC(=S)NNC(=O)Cn1c2ccccc2c2ccccc21 [Compound 4y]
Output: 205 to 207 °C

###

RECORDED_METRIC: melting point

Below: 6 compounds and their reported melting point.
compound=O=C(Cn1c2ccccc2c2ccccc21)NNC(=S)NC1CCCCC1 recorded_metric="melting point" observed="211 to 213 °C"
compound=O=C(Cn1c2ccccc2c2ccccc21)NNC(=S)Nc1ccc(Cl)cc1 recorded_metric="melting point" observed="235 to 237 °C"
compound="O=C(Cn1c2ccccc2c2ccccc21)NNC(=S)NC1CC2CCC1C2 (stereo not drawn)" recorded_metric="melting point" observed="199 to 201 °C"
compound=O=C(Cn1c2ccccc2c2ccccc21)NNC(=S)Nc1ccc(Br)cc1 recorded_metric="melting point" observed="255 to 257 °C"
compound=O=C(Cn1c2ccccc2c2ccccc21)NNC(=S)NCCCN1CCOCC1 recorded_metric="melting point" observed="189 to 191 °C"
compound=O=C(Cn1c2ccccc2c2ccccc21)NNC(=S)Nc1ccccc1 recorded_metric="melting point" observed="235 to 237 °C"

Task: Entry COc1ccc(NC(=S)NNC(=O)Cn2c3ccccc3c3ccccc32)cc1 : reported melting point = ?
Output: 210 to 212 °C

Task: Can you handle Cc1ccc(NC(=S)NNC(=O)Cn2c3ccccc3c3ccccc32)cc1 next?
Output: 180 to 182 °C

Task: Same for CC(C)NC(=S)NNC(=O)Cn1c2ccccc2c2ccccc21
Output: 186 to 188 °C

###

Test system: MCF-7 cell line
ASSAY_TEXT: MTT cell viability, MCF-7 cancer cell line
Format: cell-based
CONDITION_LABEL: Homo sapiens, MCF7; MTT, 48 h; read-out: IC50 values Carbazole Derivatives Effect on MCF-7 Cell Line
RECORDED_METRIC: IC50

molecule="CC(C)NC(=S)NNC(=O)Cn1c2ccccc2c2ccccc21 [Compound 4t]" observed="> 20 µM"
molecule="O=C(Cn1c2ccccc2c2ccccc21)NNC(=S)NC1CCCCC1 [Compound 4m]" observed="> 20 µM"
molecule="O=C(Cn1c2ccccc2c2ccccc21)NNC(=S)Nc1ccc(Cl)cc1 [Compound 4h]" observed="> 20 µM"
molecule="O=C(Cn1c2ccccc2c2ccccc21)NNC(=S)NC1CC2CCC1C2 (stereo not shown) [Compound 4r]" observed="4.99 µM"
molecule="O=C(Cn1c2ccccc2c2ccccc21)NNC(=S)Nc1ccccc1 [Compound 4a]" observed="> 20 µM"
molecule="Cc1ccc(NC(=S)NNC(=O)Cn2c3ccccc3c3ccccc32)cc1 [Compound 4n]" observed="> 20 µM"
molecule="COc1cccc2c1C(=O)c1c(O)c3c(c(O)c1C2=O)C[C@@](O)(C(=O)CO)C[C@@H]3O[C@H]1C[C@H](N)[C@H](O)[C@H](C)O1 [Doxorubicin, reference compound]" observed="5.06 µM"
molecule="C=CCNC(=S)NNC(=O)Cn1c2ccccc2c2ccccc21 [Compound 4y]" observed="> 20 µM"

Task: I am curious: what IC50 value has been reported for O=C(Cn1c2ccccc2c2ccccc21)NNC(=S)NCc1ccccc1 [Compound 4p] ?
Output: > 20 µM

Task: For CNC(=S)NNC(=O)Cn1c2ccccc2c2ccccc21 [Compound 4z] then?
Output: > 20 µM

###

ASSAY_TEXT: DPPH radical scavenging assay
Assay type: biochemical
CONDITION_LABEL: 30 min, 517 nm
RECORDED_METRIC: IC50 (µM)

Consider the reported IC50 for these compounds:
compound="O=C(Cn1c2ccccc2c2ccccc21)NNC(=S)NCCCN1CCOCC1 [Compound 4c]" recorded_metric=IC50 observed=8.99
compound="O=C(Cn1c2ccccc2c2ccccc21)NNC(=S)Nc1ccc([N+](=O)[O-])cc1 [Compound 4e]" recorded_metric=IC50 observed=50.8
compound="O=C(Cn1c2ccccc2c2ccccc21)NNC(=S)Nc1ccc(Br)cc1 [Compound 4g]" recorded_metric=IC50 observed=4.14
compound="COc1cccc(NC(=S)NNC(=O)Cn2c3ccccc3c3ccccc32)c1 [Compound 4b]" recorded_metric=IC50 observed=5.15
compound="O=C(Cn1c2ccccc2c2ccccc21)NNC(=S)Nc1ccc(Cl)cc1 [Compound 4h]" recorded_metric=IC50 observed=0.73

a. O=C(Cn1c2ccccc2c2ccccc21)NNC(=S)Nc1ccccc1 [Compound 4a]
b. O=C(Cn1c2ccccc2c2ccccc21)NNC(=S)NCc1ccccc1 [Compound 4p]
Task: # argmax over IC50 for candidates a and b Which one? Tell me its label.
Output: a

I. C=CCNC(=S)NNC(=O)Cn1c2ccccc2c2ccccc21 [Compound 4y]
II. CNC(=S)NNC(=O)Cn1c2ccccc2c2ccccc21 [Compound 4z]
III. O=C(Cn1c2ccccc2c2ccccc21)NNC(=S)Nc1ccc(C(F)(F)F)cc1 [Compound 4k]
IV. O=C(Cn1c2ccccc2c2ccccc21)NNC(=S)NC(=O)c1ccccc1 [Compound 4o]
Task: Please list these in order of increasing IC50. Thank you! Labels, ranked as asked.
Output: I, III, II, IV

1. CC(C)NC(=S)NNC(=O)Cn1c2ccccc2c2ccccc21 [Compound 4t]
2. Cc1ccc(NC(=S)NNC(=O)Cn2c3ccccc3c3ccccc32)cc1 [Compound 4n]
Task: Would you let me know which has the greater IC50 value, 1 or 2 ? Give the label under which the chosen entry appears.
Output: 1

###

Property: melting point; scope: individual compounds

compound="O=C(Cn1c2ccccc2c2ccccc21)NNC(=S)Nc1ccc(C(F)(F)F)cc1 [Compound 4k]" observed="177 to 179 °C"
compound="COc1cccc(NC(=S)NNC(=O)Cn2c3ccccc3c3ccccc32)c1 [Compound 4b]" observed="218 to 220 °C"

// next item, melting point requested
Task: Give its melting point value. Item: CNC(=S)NNC(=O)Cn1c2ccccc2c2ccccc21 [Compound 4z]
Output: 173 to 175 °C

###

ASSAY_TEXT: DPPH radical scavenging assay
Assay type: biochemical
CONDITION_LABEL: 30 min, 517 nm
RECORDED_METRIC: IC50 (µM)

Completed entries (count: 4):
compound=O=C(Cn1c2ccccc2c2ccccc21)NNC(=S)NCCc1ccccc1 recorded_metric=IC50 value_units=µM observed=3.05
compound="Cc1c(C)c2c(c(C)c1O)CCC(C)(C(=O)O)O2 (stereo not drawn) [Trolox, reference compound]" recorded_metric=IC50 value_units=µM observed=7.71
compound="O=C(Cn1c2ccccc2c2ccccc21)NNC(=S)NC1CC2CCC1C2 (stereo not drawn)" recorded_metric=IC50 value_units=µM observed=19.9
compound=O=C(Cn1c2ccccc2c2ccccc21)NNC(=S)NC1CCCCC1 recorded_metric=IC50 value_units=µM observed=2.37

1. O=C(Cn1c2ccccc2c2ccccc21)NNC(=S)Nc1cccc2ccccc12
2. COc1ccc(NC(=S)NNC(=O)Cn2c3ccccc3c3ccccc32)cc1
Task: I'm curious, which of these has a smaller IC50 number: 1 or 2 ? Your choice should be expressed through its label.
Output: 2
